- Experimental System: Xanthine dehydrogenase/oxidase (Homo sapiens)
- Sequence (P47989 whole entry): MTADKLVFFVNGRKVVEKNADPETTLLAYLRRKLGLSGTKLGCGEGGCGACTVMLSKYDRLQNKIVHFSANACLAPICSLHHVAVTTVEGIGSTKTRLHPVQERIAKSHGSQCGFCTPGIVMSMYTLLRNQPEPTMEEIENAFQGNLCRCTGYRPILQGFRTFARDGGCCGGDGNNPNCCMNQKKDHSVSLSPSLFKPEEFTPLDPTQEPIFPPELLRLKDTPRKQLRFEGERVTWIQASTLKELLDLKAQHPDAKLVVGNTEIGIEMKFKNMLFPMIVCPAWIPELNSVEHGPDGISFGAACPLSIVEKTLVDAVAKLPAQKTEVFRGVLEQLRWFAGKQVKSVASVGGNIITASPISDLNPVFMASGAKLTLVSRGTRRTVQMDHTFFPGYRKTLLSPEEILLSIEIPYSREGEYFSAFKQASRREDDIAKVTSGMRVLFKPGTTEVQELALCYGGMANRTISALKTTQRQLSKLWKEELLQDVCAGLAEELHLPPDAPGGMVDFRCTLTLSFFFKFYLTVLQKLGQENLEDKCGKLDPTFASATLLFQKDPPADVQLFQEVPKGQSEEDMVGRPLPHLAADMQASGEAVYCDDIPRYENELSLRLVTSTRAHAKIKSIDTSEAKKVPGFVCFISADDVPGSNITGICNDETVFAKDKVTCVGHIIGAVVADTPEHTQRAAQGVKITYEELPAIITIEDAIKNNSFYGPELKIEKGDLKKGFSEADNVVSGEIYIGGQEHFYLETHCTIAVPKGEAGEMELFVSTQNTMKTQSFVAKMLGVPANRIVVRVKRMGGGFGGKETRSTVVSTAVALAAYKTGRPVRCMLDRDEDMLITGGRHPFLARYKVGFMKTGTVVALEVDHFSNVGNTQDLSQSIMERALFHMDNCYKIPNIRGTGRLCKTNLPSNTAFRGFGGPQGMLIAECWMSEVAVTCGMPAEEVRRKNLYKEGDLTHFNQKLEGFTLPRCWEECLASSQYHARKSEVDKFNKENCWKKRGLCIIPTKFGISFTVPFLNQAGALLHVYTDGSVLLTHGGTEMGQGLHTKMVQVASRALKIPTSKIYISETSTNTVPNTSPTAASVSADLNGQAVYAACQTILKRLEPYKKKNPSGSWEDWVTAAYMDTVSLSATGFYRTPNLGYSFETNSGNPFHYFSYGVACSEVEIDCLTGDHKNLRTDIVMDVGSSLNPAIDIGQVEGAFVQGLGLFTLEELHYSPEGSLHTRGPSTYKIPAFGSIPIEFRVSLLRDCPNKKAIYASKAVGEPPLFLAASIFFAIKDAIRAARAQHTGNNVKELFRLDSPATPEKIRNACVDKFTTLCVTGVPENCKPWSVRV
- Assay Notes: Inhibition of human xanthine oxidase
Reported Metric: pKi
Numbers only, as −log10 of the molar value.

Data request, read-out pKi, for O=c1[nH]c(=O)c2c[nH]nc2[nH]1 [OXYPURINOL]
7.46

This collection of values is drawn from ChEMBL document CHEMBL3352774.
